From: paper PMC10786891

Target: T1, EsCas13d, nuclease-dead (Eubacterium siraeum, UniProt B0MS50, R295A;H300A;R849A;H854A)
T1 sequence: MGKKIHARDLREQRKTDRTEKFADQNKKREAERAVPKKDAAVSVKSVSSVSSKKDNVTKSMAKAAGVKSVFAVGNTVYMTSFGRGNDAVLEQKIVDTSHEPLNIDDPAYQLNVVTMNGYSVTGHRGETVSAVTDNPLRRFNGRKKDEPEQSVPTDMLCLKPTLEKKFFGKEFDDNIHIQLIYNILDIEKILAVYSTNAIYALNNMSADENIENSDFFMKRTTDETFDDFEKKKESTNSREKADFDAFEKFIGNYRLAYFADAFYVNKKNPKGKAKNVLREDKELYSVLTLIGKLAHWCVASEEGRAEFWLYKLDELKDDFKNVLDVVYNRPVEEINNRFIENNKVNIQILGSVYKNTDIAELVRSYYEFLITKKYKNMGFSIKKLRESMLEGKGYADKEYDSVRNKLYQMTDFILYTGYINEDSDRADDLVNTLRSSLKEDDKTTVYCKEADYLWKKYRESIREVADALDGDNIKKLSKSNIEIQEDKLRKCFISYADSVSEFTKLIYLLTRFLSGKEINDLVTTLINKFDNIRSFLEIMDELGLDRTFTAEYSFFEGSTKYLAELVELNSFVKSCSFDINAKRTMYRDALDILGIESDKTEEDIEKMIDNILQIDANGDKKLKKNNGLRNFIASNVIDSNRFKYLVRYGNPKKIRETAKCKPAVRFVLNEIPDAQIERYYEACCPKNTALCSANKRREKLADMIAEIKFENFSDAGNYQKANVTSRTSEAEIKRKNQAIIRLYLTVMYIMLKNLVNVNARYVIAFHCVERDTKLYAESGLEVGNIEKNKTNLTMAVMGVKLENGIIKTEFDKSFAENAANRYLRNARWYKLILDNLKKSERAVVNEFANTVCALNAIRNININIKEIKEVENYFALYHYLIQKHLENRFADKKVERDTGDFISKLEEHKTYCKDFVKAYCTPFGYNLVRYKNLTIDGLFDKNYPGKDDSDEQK
Test: crRNA (strand 1, pre-loaded); Mg2+; 40 mM Tris-HCl pH 7.5, 150 mM NaCl, 6 mM MgCl2, 1 mM DTT, 0.1% Tween-20, 0.2 mg/ml BSA; 25 C; 10 min per concentration, then washed
Details: tags: His6-TwinStrep-SUMO cleaved; N-terminal SNAP kept (SNAP-Surface 488); label: 3' end held by stalled T7 RNA polymerase
Measured Kd of individual entries
Report only the number, with the unit nM understood.

[in] For the binder target 1 A1U,G15A (mixed) RNA 1: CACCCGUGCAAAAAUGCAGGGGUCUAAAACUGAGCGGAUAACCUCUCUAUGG RNA 2: GGGAAUGGAUCCACAUCUACGAAUUCGUACCAUAGAAAGGUUAUCCGCUCUCCGAGAUCGGAAGAGCACACGU , give its measured Kd value.
[out] 11.2

Continue with the binder presented below.
[in] For the binder target 1 C6A,C21A (mixed) RNA 1: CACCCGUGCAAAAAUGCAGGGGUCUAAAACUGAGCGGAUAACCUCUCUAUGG RNA 2: GGGAAUGGAUCCACAUCUACGAAUUCGUACAAUAGAGAGGUUAUCAGCUCACCGAGAUCGGAAGAGCACACGU , give its measured Kd value.
[out] 23.5
